Source of measurements: PubChem BioAssay (NCI)

Give measured growth for each item. Keep answers brief.
tested on: A498 renal; assay: NCI-60 one-dose screen, 48 h (100 = growth as untreated, 0 = no growth, -100 = all killed); conditions: 10 µM
The panel holds about 83,000 compounds, 20% with a hit somewhere; the sample as a whole holds those more often.
Give bare numbers, in %.

Cc1ccc(-c2ccc(SCC(=O)Nc3ccc(S(N)(=O)=O)cc3Br)nn2)cc1    87.2

Field: growth. Fill in for each record below.
1. CCCn1c(=O)c2[nH]c(-c3ccc(OCc4nc5ccccc5[nH]4)cc3)nc2n(CCC)c1=O
2. COc1ccc(-c2ccc(/C=N/NC(=O)c3[nH]c4ccc(Br)cc4c3-c3ccccc3)o2)cc1
3. COc1cccc(-c2ccc(/C=N/NC(=O)c3[nH]c4ccc(Br)cc4c3-c3ccccc3)o2)c1

Reply text:
-10.5
73.9
72.5

Field: growth. Fill in for each record below.
1. COc1cccc2nc(Nc3cccc(NC(=O)c4ccc(CN5CCCN(C)CC5)c(C(F)(F)F)c4)c3)ccc12
2. COc1ccc(N2N=C(c3ccc4c(c3)OCCO4)CC2c2cccc(NC(=O)CCCNS(=O)(=O)c3ccc(F)cc3)c2)cc1 (stereo unspecified)

Reply text:
1: -91; 2: 86.5
